Hey, just so you know, these numbers are from patent US11685734B2.

# system-tested: cellular ATM activity (Homo sapiens (Human))
# Sequence (Q13315 whole entry): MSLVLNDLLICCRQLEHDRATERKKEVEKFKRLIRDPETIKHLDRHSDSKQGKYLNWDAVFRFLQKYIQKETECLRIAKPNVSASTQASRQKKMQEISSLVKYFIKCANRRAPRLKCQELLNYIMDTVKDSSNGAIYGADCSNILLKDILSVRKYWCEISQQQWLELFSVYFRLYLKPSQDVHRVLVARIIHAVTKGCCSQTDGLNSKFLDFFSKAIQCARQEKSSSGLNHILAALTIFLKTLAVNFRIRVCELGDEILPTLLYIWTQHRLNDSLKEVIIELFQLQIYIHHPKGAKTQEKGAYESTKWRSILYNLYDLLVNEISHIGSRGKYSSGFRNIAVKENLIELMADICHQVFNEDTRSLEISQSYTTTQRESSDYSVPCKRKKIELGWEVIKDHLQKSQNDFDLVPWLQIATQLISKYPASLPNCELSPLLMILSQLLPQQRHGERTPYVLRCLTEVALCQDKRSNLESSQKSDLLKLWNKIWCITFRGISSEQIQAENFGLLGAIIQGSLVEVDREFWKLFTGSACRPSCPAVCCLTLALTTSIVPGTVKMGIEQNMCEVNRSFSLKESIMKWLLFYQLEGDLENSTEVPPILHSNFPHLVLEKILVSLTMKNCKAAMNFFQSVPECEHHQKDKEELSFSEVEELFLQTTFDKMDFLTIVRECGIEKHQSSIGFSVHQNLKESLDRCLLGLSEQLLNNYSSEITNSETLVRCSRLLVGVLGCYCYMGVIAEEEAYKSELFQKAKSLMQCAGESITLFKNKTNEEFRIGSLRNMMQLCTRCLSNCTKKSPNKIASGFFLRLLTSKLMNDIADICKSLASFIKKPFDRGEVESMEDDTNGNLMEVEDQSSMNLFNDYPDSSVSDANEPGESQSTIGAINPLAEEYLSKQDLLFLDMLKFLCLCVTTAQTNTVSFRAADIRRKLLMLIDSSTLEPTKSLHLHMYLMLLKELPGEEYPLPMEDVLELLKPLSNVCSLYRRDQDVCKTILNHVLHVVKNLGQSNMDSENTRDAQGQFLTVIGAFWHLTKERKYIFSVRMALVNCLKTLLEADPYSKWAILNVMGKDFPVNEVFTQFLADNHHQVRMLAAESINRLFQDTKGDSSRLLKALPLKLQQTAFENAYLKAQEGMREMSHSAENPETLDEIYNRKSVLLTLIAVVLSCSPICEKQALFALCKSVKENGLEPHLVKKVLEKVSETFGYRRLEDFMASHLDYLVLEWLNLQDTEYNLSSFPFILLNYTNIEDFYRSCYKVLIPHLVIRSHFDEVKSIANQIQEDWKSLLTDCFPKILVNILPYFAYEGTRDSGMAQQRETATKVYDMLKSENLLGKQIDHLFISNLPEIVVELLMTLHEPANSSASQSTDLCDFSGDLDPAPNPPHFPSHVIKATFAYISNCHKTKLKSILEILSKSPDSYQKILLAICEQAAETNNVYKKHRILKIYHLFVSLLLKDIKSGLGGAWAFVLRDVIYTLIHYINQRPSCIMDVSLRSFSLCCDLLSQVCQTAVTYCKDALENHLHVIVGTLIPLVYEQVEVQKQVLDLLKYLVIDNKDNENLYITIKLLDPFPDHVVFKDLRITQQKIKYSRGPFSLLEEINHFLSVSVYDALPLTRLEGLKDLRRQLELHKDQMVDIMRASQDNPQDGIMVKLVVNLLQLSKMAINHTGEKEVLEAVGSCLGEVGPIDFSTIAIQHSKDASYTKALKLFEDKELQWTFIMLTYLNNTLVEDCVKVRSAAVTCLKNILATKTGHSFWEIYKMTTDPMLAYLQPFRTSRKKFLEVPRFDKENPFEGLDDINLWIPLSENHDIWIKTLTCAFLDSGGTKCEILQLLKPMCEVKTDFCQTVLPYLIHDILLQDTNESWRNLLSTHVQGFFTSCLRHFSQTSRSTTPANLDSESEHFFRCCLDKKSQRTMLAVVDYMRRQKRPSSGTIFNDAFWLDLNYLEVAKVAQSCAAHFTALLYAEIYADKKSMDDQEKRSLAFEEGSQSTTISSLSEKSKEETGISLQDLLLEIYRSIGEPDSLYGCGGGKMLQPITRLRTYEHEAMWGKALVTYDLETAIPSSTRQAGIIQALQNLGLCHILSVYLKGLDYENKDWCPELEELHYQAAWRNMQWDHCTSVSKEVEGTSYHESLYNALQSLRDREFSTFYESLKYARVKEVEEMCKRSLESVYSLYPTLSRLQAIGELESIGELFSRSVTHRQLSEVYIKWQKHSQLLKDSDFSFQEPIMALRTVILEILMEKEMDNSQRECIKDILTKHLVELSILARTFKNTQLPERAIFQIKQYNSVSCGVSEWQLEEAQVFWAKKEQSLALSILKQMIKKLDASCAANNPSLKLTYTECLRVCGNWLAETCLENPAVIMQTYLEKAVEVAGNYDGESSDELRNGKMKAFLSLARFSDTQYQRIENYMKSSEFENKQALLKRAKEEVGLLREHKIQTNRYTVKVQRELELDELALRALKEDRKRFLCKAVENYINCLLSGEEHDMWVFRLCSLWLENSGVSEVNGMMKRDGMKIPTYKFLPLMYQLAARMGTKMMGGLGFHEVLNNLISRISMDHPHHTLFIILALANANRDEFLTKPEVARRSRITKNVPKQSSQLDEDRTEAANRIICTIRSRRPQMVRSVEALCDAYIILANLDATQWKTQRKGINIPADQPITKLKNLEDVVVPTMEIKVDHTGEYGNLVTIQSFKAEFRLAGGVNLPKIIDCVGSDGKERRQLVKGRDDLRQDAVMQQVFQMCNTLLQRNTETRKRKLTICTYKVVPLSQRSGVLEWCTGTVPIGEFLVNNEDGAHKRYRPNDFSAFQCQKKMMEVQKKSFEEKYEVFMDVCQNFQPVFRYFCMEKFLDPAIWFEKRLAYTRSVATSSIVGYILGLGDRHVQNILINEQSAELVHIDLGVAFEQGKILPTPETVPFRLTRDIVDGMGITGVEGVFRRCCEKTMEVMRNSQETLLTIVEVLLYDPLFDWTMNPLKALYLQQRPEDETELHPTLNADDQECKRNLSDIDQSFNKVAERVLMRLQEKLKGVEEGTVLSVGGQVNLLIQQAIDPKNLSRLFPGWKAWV
# assay-procedure: Inhibition of cellular ATM activity: etoposide-stimulated KAP1 phosphorylation in U20S cells
# recorded-conditions: 100 μM etoposide, 60 min, read-out: ATM CELL IC50
# Experimental: Inhibition of cellular ATM activity was determined by changes in etoposide-stimulated KAP1 phosphorylation, based on the work of Guo et al. 2014. Cryopreserved U20S cells were plated overnight at 6 k cells/well in black walled, clear bottomed 384 well plates (Greiner Bio One 781090). […] Immunoreactivity was quantified and the ratio of phosphorylated KAP1 calculated by dividing by the total KAP1 immunoreactivity. […]
property-measured: IC50 (µM)

{"compound": "O=c1cc(N2CCOCC2)nc(N2CCCC2Cn2cnc3ccccc32)[nH]1 (stereo not shown)", "property-measured": "IC50", "readout-units": "µM", "value-measured": 1.34}
{"compound": "C[C@@H]1CN(c2cc(=O)[nH]c(N3CCCCC[C@@H]3Cc3ccc(F)cc3)n2)CCO1", "property-measured": "IC50", "readout-units": "µM", "value-measured": 0.957}
{"compound": "C[C@@H]1CN(c2cc(=O)[nH]c(N3CCCCC[C@@H]3Cc3ccccc3F)n2)CCO1", "property-measured": "IC50", "readout-units": "µM", "value-measured": 0.857}
{"compound": "O=c1cc(N2CCOCC2)nc(N2CC[C@@H](O)[C@@H]2Cc2ccccc2)[nH]1", "property-measured": "IC50", "readout-units": "µM", "value-measured": 0.881}
{"compound": "C[C@@H]1CN(c2cc(=O)[nH]c(N3CCCCC[C@@H]3Cc3ccsc3)n2)CCO1", "property-measured": "IC50", "readout-units": "µM", "value-measured": 0.813}
{"compound": "COCCOc1cccc(C[C@H]2CCCCCN2c2nc(N3CCO[C@H](C)C3)cc(=O)[nH]2)c1", "property-measured": "IC50", "readout-units": "µM", "value-measured": 0.56}

I = O=c1cc(N2CCOCC2)cc(N2CCCCC[C@@H]2Cc2cccc3c2OCO3)[nH]1
II = COc1ccccc1C[C@H]1[C@H]2C[C@H]2CN1c1cc(N2CCOCC2)cc(=O)[nH]1
III = C[C@@H]1CN(c2cc(=O)[nH]c(N3CCC[C@@H]3Cc3ccccc3)n2)CCO1
IV = O=c1cc(N2CCOCC2)cc(N2CCC[C@@H]2Cc2ccc(F)cc2)[nH]1
V = Cc1cc(C[C@H]2CCCN2c2nc(N3CCO[C@H](C)C3)cc(=O)[nH]2)cc(C)n1
Request: Please put the entries in order of rising IC50. Please, when replying, give the labels in the order that was requested.
Result: I, V, II, III, IV
(I: 0.274 µM, V: 0.417 µM, II: 0.711 µM, III: 2.14 µM, IV: 4.16 µM)
